The measured values listed here are drawn from paper PMC6044503.

# System name: human Y2R (Homo sapiens)
# Sequence (P49146 whole entry): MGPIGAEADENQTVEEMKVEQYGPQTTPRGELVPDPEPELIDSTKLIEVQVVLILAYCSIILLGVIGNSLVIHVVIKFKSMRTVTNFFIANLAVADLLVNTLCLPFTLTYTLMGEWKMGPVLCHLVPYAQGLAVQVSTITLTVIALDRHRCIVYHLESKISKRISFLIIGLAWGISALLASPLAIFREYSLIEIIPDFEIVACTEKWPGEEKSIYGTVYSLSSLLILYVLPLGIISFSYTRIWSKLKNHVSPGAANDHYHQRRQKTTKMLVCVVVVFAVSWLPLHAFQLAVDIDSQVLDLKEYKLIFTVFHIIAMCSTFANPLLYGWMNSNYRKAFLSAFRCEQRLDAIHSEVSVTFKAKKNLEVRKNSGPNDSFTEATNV
# Protocol text: biochemical
# Type: binding
Where a SMILES comes first, the peptide text is derived from it. [ ]: non-standard residue; d: D form. The star is where a group is joined. 2Nal = N[C@@H](Cc1ccc2ccccc2c1)C(=O)O; Cyclohexanecarbonyl = O=C(C1CCCCC1)*; Cha = N[C@@H](CC1CCCCC1)C(=O)O; Aib = CC(C)(N)C(=O)O; Bz = O=C(c1ccccc1)*
Property name: IC50 (nM)

INSERT INTO assay_data (compound, measure_unit, measured_number) VALUES
  ('CC[C@H](C)[C@H](NC(=O)[C@H](CC1CCCCC1)NC(=O)[C@H](Cc1c[nH]cn1)NC(=O)[C@H](CCCNC(=N)N)NC(=O)C1CCCCC1)C(=O)N[C@@H](CC(N)=O)C(=O)N[C@@H](CC(C)C)C(=O)NC(C)(C)C(=O)N[C@H](C(=O)N[C@@H](CCCNC(=N)N)C(=O)N[C@@H](CCC(N)=O)C(=O)N[C@@H](CCCNC(=N)N)C(=O)N[C@@H](CC1CCCCC1)C(N)=O)[C@@H](C)O [Compound 16] (Cyclohexanecarbonyl-RH[Cha]INL[Aib]TRQR[Cha]-NH2)', 'nM', 4.9),
  ('CC[C@H](C)[C@H](NC(=O)[C@H](Cc1ccc2ccccc2c1)NC(=O)[C@H](Cc1c[nH]cn1)NC(=O)[C@H](CCCNC(=N)N)NC(=O)c1ccccc1)C(=O)N[C@@H](CC(N)=O)C(=O)N[C@@H](Cc1c[nH]c2ccccc12)C(=O)N[C@H](C(=O)N[C@H](C(=O)N[C@@H](CCCNC(=N)N)C(=O)N[C@@H](CCC(N)=O)C(=O)N[C@@H](CCCNC(=N)N)C(=O)N[C@@H](CC1CCCCC1)C(N)=O)[C@@H](C)O)[C@@H](C)CC [Compound 15] (Bz-RH[2Nal]INWITRQR[Cha]-NH2)', 'nM', 19);
